assay: qHTS of pediatric cancer cell lines to identify multiple opportunities for drug repurposing: Primary screen for SK-N-MC cells (AID 1347093); settings: SK-N-MC viability, CellTiter-Glo luminescence, 48 h; series mostly up to 46 µM
Results filed as inconclusive are left out. Active and inactive are the calls of the source. Calls follow the shape of the dose curve; as a rule, active = well fitted cell-killing curve with a large enough effect; inconclusive = small, poorly fitted or top-dose-only effect; inactive = no such curve, though single readings can be large or run the other way.
Answer with one of the outcomes given here: true (active), false (inactive)

Please let me know the test result on file for CC(=O)Nc1ccn(C2COC(COC(=O)c3ccccc3)O2)c(=O)n1 (centres undefined) .
true

Input "Cc1sccc1Br"
false

Input "O=c1[nH]c2ccccc2c(=O)n1CCCl"
false

Input "C/C=C(/C(=C/C)c1ccc(OC(C)=O)cc1)c1ccc(OC(C)=O)cc1"
true

Input "CCN(CC)CC(=O)OCC(=O)[C@@]1(O)CC[C@H]2[C@@H]3CCC4=CC(=O)CC[C@]4(C)[C@H]3[C@@H](O)C[C@@]21C"
false

Input C[C@H](N)C(=O)N[C@@H](C)C(=O)NC1[C@H]2CN(c3nc4c(cc3F)c(=O)c(C(=O)O)cn4-c3ccc(F)cc3F)C[C@@H]12 (some centres undefined)
false

Input "CCN1CCN(C(=O)N[C@@H](C(=O)N[C@@H]2C(=O)N3[C@@H]2SC(C)(C)[C@H]3C(=O)O)c2ccccc2)C(=O)C1=O"
false

Input CC1CC(=O)NN=C1c1ccc(NCC(C)(C)NCC(O)COc2cc(Cl)ccc2C#N)cc1 (centres undefined)
false

Input "O=C(OCC1(COC(=O)c2cccnc2)CCCC(COC(=O)c2cccnc2)(COC(=O)c2cccnc2)C1O)c1cccnc1"
false

* * *

assay: qHTS of pediatric cancer cell lines to identify multiple opportunities for drug repurposing: Primary screen for NB1643 cells (AID 1347099); settings: NB1643 neuroblastoma viability, CellTiter-Glo luminescence, 48 h; series mostly up to 46 µM; also: nearly all actives have a fitted effect of over 50% in size
Results filed as inconclusive are left out. Activity calls are given as the source filed them. Calls follow the shape of the dose curve; as a rule, active = well fitted cell-killing curve with a large enough effect; inconclusive = small, poorly fitted or top-dose-only effect; inactive = no such curve, though single readings can be large or run the other way. Where a SMILES comes first, the peptide text is derived from it. [ ]: non-standard residue; d: D form. pGlu = O=C1CC[C@@H](C(=O)O)N1
Answer with one of the outcomes given here: active, inactive

Please let me know the test result on file for "CN1CCC(=C2c3ccccc3CCc3cccnc32)CC1" .
inactive

Input CCOC(=O)NNc1ccc(N(CC)CC(C)O)nn1 (stereo not drawn)
inactive

Input NC(=O)NC1N=C([O][Al])NC1=O (stereo not drawn)
inactive

Input COc1ccccc1OCC1CNC(=O)O1 (stereo not drawn)
inactive

Input "Brc1ccccc1-c1ccccc1"
inactive

Input "Cc1cccc(C)c1NC(=O)c1ccc(N)cc1"
inactive

Input "CCCC(=O)O[C@]1(C(=O)COC(=O)CC)CC[C@H]2[C@@H]3CCC4=CC(=O)CC[C@]4(C)[C@H]3[C@@H](O)C[C@@]21C"
inactive

Input "O=C(CCCl)NCCc1ccccc1"
inactive

Input "Cc1cc2nc3ccc(=[N+](C)C)cc-3sc2cc1N"
active

Input "CCCC(=O)O[C@]1(C(=O)CC)CC[C@H]2[C@@H]3CCC4=CC(=O)CC[C@]4(C)[C@H]3[C@@H](O)C[C@@]21C"
inactive

Input "Cc1nc2n(c(=O)c1CCN1CCC(C(=O)c3ccc(F)cc3)CC1)CCS2"
inactive

Input CCNC(=O)[C@@H]1CCCN1C(=O)[C@H](CCCN=C(N)N)NC(=O)[C@H](CC(C)C)NC(=O)CNC(=O)[C@H](Cc1ccc(O)cc1)NC(=O)[C@H](CO)NC(=O)[C@H](Cc1c[nH]c2ccccc12)NC(=O)[C@H](Cc1cnc[nH]1)NC(=O)[C@@H]1CCC(=O)N1 ([pGlu]HWSYGLRP-NHEt)
inactive

Input "Cc1coc2ccccc2c1=O"
inactive

Input "O=C(O)CNC(=O)CNC(=O)CNC(=O)CSC(=O)c1ccccc1"
inactive

Input Nc1ccc(C(=O)OCC(O)CO)cc1 (stereo not drawn)
active

Input C[C@@H]1CCC[C@H](C)N1CCCC(O)(c1ccccc1)c1ccccn1 (stereo partly drawn)
inactive

Input "O=c1[nH]sc2cc(Cl)ccc12"
active

Input "Nc1ncnc2nc[nH]c12"
inactive

Input CCOC(=O)C(O)c1ccccc1 (stereo not drawn)
inactive

Input "Oc1ccccc1"
inactive

Input "CCOC(=O)Oc1ccc(CCNC(=O)[C@H](CCSC)NC(C)=O)cc1OC(=O)OCC"
inactive

Input "CC(C)NCCCC1(C(N)=O)c2ccccc2-c2ccccc21"
inactive

Input "CCOC(=O)c1ccc(NC(=O)CN2CCCCC2)cc1"
inactive

* * *

Test system: MKL-1
Assay: qHTS assay to identify novel small-molecules to repurpose for Merkel cell carcinoma treatment (AID 1296009); also: nearly all actives have a fitted effect of over 60% in size
Settings: MCC and control cell lines, CellTiter-Glo viability, 72 h; series mostly up to 46 µM
Text: MCC is a rare and aggressive neuroendocrine skin cancer with limited treatment options. Approximately 80% of MCCs have the Merkel cell polyomavirus (MCPyV) DNA integrated into the host genome (virus-positive: VP-MCC) and viral oncogenes drive oncogenesis. The remaining MCCs are virus-negative (VN-MCC) and are caused by UV mutagenesis. […] Using cell viability as a readout (CellTiter-Glo assay) we found both overlapping and distinct drugs that can be repurposed for the treatment of VP-MCC and VN-MCC. […]
Records with an inconclusive call do not appear. The source made the active and inactive calls. The call rests on the fitted dose curve; in most records, active means well fitted inhibition curve with a large enough effect; inconclusive means small, poorly fitted or top-dose-only effect; inactive means flat fitted curve, though single readings scatter.
Answer with one of the outcomes given here: true (active), false (inactive)

Please let me know the test result on file for "CCOC(=O)c1ccc(OCCN2C[C@H](O)[C@@H](O)[C@H](O)[C@H]2CO)cc1" .
false

Input CC(=O)O[C@@H]1CC2C3CCc4cc(OC(=O)c5ccccc5)ccc4C3CCC2(C)[C@H]1OC(C)=O (stereo not given in full)
false

Input "Cc1sccc1Br"
false

Input "CO/N=C(/C(=O)N[C@@H]1C(=O)N2C(C(=O)OCOC(=O)C(C)(C)C)=C(C)CS[C@H]12)c1csc(N)n1"
false

Input "CCCc1ncc(C(=O)O)s1"
false

Input "CCc1cc2cc(OC)c(OC)cc2c(Cc2ccccc2)n1"
false

Input "Cc1ccc(O)cc1"
false

Input "Cc1coc2ccccc2c1=O"
false

Input "O=[N+]([O-])c1ccc(O)c2ncccc12"
true

Input "O=C(O)[C@@H](O)[C@H](O)[C@H](O)[C@@H](O)C(=O)O"
false

Input CC1c2ccccc2CN1NC(=O)c1ccc(Cl)c(S(N)(=O)=O)c1 (stereo not given)
false

Input "OCc1cccnc1"
false

Input "O=C(O)C1CCC1"
false

Input "O=C(O)CCCC[C@@H]1SC[C@@H]2NC(=O)N[C@@H]21"
false

Input C#CC(C)(CC)OC(=O)c1ccccc1C(=O)O (stereo not given)
false

* * *

test system: OV90; test: Primary qHTS to identify gynecologic anti-cancer compounds using libraries of approved drugs and bioactive compounds (AID 1345084); conditions: Gynecologic cancer cell panel viability, ATPlite luminescence, 48 h; series mostly up to 57.5 µM; also: nearly all actives have a fitted effect of over 55% in size
Records with an inconclusive call do not appear. Active and inactive are the calls of the source. The call rests on the fitted dose curve; in most records, active means well fitted cell-killing curve with a large enough effect; inconclusive means small, poorly fitted or top-dose-only effect, or effect the other way; inactive means flat fitted curve, though single readings scatter.
Answer with one of the outcomes given here: active, inactive

Please let me know the test result on file for "CCc1cc2cc(OC)c(OC)cc2c(Cc2ccccc2)n1" .
inactive

Input "O=C1CC(c2ccc(Cl)cc2)CC(=O)N1"
inactive

Input "NS(=O)(=O)c1cc(C(=O)NN2C[C@H]3[C@H]4CCC(C4)[C@H]3C2)ccc1Cl"
inactive

Input "CC(C)(C)c1cc(C=O)cc(C(C)(C)C)c1O"
inactive

Input "Nc1c2ccccc2nc2ccccc12"
active

Input "Cc1ccc(C(=O)C(=O)O)cc1C"
inactive

Input "COC(=O)c1cc(Cl)c(NC(C)=O)cc1OC"
inactive

Input "COc1cc(C=O)ccc1O"
inactive

Input "CC(=O)N[C@@H](CCC(N)=O)C(=O)O"
inactive

Input O=C(C1CCCCC1)N1CC(=O)N2CCCc3ccccc3C2C1 (configuration not stated)
inactive

Input O=C(CS(=O)Cc1ccco1)NC/C=C\COc1cc(CN2CCCCC2)ccn1 (configuration not stated)
inactive

Input "O=C(COCCOCCOCC(=O)Nc1c(I)cc(I)c(C(=O)O)c1I)Nc1c(I)cc(I)c(C(=O)O)c1I"
inactive

* * *

assay: Cell Viability - LYMP2-024 (AID 988); details: LYMP2-024 lymphoblastoid cell viability; series mostly up to 92.2 µM;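 also: cells exposed to compound for 24 hr at 37 °C; nearly all actives have a fitted effect of over 60% in size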
Results filed as inconclusive are left out. Active and inactive are the calls of the source. The call rests on the fitted dose curve; in most records, active means well fitted cell-killing curve with a large enough effect; inconclusive means small, poorly fitted or top-dose-only effect; inactive means flat fitted curve, though single readings scatter.
Answer with one of the outcomes given here: yes (1) (active), no (0) (inactive)

Please let me know the test result on file for "OCc1c[nH]c2ccccc12" .
no (0)

Input "Cc1ccc(O)cc1"
no (0)

Input "Nc1c2ccccc2nc2ccccc12"
yes (1)

Input "COc1cc(C=O)ccc1O"
no (0)

Input "Nc1cccc2c(N)cccc12"
no (0)

Input C1=CC2C3C=CC(C3)C2C1 (stereo not drawn)
no (0)

Input "Oc1ccccc1"
no (0)

Input "CC(C)C(C)(C)C(C)(C)C(C)(C)S"
no (0)

Input "O=C(NO)c1ccccc1"
no (0)

Input "CC(C)(C)c1ccc(O)c(O)c1"
yes (1)

Input CCCCC(CC)COC(=O)c1ccccc1C(=O)O (stereo not drawn)
no (0)

Input "O=C(Oc1ccccc1)c1ccccc1O"
no (0)

Input "Cc1cc(C(C)(C)C)c(O)c(C(C)(C)C)c1"
no (0)

Recorded values, source PubChem BioAssay (NCATS).
